- test-target: Proto-oncogene tyrosine-protein kinase receptor Ret (Homo sapiens, UniProt P07949)
- Sequence (P07949 whole entry, the tested form may be a part): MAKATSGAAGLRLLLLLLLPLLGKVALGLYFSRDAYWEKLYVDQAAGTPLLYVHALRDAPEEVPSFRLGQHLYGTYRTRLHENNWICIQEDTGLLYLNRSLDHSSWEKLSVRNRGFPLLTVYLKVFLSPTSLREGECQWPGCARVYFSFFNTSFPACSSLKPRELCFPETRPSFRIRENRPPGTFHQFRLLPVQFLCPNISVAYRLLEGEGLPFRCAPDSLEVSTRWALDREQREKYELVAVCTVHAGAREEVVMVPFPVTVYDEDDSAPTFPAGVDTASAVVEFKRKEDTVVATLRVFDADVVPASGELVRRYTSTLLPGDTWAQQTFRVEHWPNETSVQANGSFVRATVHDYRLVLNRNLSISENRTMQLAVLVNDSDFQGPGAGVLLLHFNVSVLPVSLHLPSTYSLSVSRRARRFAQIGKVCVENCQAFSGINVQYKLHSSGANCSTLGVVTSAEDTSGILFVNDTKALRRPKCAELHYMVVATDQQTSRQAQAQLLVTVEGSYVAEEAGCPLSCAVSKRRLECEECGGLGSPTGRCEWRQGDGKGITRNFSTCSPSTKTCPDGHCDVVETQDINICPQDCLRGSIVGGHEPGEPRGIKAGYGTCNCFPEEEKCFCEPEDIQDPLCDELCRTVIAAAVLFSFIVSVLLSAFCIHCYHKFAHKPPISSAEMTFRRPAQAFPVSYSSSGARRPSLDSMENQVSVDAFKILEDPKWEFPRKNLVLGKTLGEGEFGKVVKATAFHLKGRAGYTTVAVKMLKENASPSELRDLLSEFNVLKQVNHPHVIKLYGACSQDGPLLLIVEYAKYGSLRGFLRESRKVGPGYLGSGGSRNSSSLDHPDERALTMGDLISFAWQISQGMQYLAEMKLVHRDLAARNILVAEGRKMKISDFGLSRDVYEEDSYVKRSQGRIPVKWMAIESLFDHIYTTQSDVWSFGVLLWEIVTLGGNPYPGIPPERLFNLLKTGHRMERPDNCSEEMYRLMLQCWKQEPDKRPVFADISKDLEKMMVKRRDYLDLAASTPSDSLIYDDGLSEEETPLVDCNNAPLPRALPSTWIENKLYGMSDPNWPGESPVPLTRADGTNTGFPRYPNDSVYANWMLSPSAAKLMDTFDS
- protocol-summary: Inhibition of recombinant human GST-tagged RET cytoplasmic domain (658 to 1114 residues) expressed in baculovirus expression system using 5'FAM-EPLYWSFPA as substrate preincubated for 60 mins followed by substrate addition by microfluidic assay
outcome-measure: IC50 (nM)
# number only, unit nM dropped from output

Query block: Given CC(C)(C)c1cc(NC(=O)Cc2ccc(-n3cnc4cc(-c5ccc(S(C)(=O)=O)cc5)ccc43)cc2)no1 , state its recorded IC50.
Result block: 1
